Source of measurements: patent US4751295A

Assay: blood levels upon intramuscular administration to mice
Assay type: in vivo
Conditions: mouse, im, 20 mg/kg
Description: Table 2, below, gives the Protective Dose50 (PD50) in mice for a number of the compounds of Formula I against selected microorganisms. Table 3 gives blood levels of various compounds of Formula I upon intramuscular administration of the test compounds to mice at a dosage of 20 mg/kg.
measurement_name: AUC (ng·h/mL)
Number only, in ng·h/mL; omit the unit.

Worked examples follow.
{"compound": "C=CCON=C(C(=O)NC1C(=O)N2C(C(=O)[O-])=C(/C=C/C[n+]3ccc(C(N)=O)cc3)CSC12)c1nsc(N)n1 (stereo not shown) [Compound I-3H]", "result_units": "ng·h/mL", "AUC": 25000}
{"compound": "CON=C(C(=O)NC1C(=O)N2C(C(=O)[O-])=C(/C=C/C[n+]3cccc(CO)c3)CSC12)c1nsc(N)n1 (stereo not shown) [Compound I-1K]", "result_units": "ng·h/mL", "AUC": 14000}
{"compound": "CON=C(C(=O)NC1C(=O)N2C(C(=O)[O-])=C(C=CC[n+]3ccc4sc(N)nc4c3)CS[C@H]12)c1nsc(N)n1 (stereo partly shown) [Compound I-1C]", "result_units": "ng·h/mL", "AUC": 18000}
{"compound": "CON=C(C(=O)NC1C(=O)N2C(C(=O)[O-])=C(/C=C/C[n+]3ccsc3C)CSC12)c1nsc(N)n1 (stereo not shown) [Compound I-1J]", "result_units": "ng·h/mL", "AUC": 9700}
{"compound": "NC(=O)c1cc[n+](C/C=C/C2=C(C(=O)[O-])N3C(=O)C(NC(=O)C(=NOC4CCCC4)c4nsc(N)n4)C3SC2)cc1 (stereo not shown) [Compound I-5H]", "result_units": "ng·h/mL", "AUC": 18000}

In: Look up AUC for this compound: CON=C(C(=O)NC1C(=O)N2C(C(=O)[O-])=C(C=CC[n+]3ccc(C(=O)O)cc3)CSC12)c1nsc(N)n1 (stereo not shown) [Compound I-1N]
Out: 18000

In: Please answer likewise for CON=C(C(=O)NC1C(=O)N2C(C(=O)[O-])=C(/C=C/C[n+]3ccc(C(N)=O)cc3)CSC12)c1nsc(N)n1 (stereo not shown) [Compound I-1H]
Out: 14000

---

Entries annotated with measured Cmax
experiment: blood levels upon intramuscular administration to mice; type: in vivo; settings: mouse, im, 20 mg/kg
Number only, in ng/mL; omit the unit.

Worked examples follow.
{"compound": "CO/N=C(\\C(=O)NC1C(=O)N2C(C(=O)[O-])=C(/C=C/C[n+]3cccc4c3CCC4)CSC12)c1nsc(N)n1 (centres unmarked)", "result_units": "ng/mL", "Cmax": 28000}
{"compound": "C#CCON=C(C(=O)NC1C(=O)N2C(C(=O)[O-])=C(/C=C/C[n+]3ccc(C(N)=O)cc3)CSC12)c1nsc(N)n1 (centres unmarked)", "result_units": "ng/mL", "Cmax": 27000}
{"compound": "NC(=O)c1cc[n+](C/C=C/C2=C(C(=O)[O-])N3C(=O)C(NC(=O)C(=NOC4CCCC4)c4nsc(N)n4)C3SC2)cc1 (centres unmarked)", "result_units": "ng/mL", "Cmax": 22000}
{"compound": "CON=C(C(=O)NC1C(=O)N2C(C(=O)[O-])=C(C=CC[n+]3ccc4sc(N)nc4c3)CS[C@H]12)c1nsc(N)n1 (some centres unmarked)", "result_units": "ng/mL", "Cmax": 21000}

# next compound below
In: Look up Cmax for this compound: CON=C(C(=O)NC1C(=O)N2C(C(=O)[O-])=C(C=CC[n+]3ccccc3)CSC12)c1nsc(N)n1 (centres unmarked)
Out: 17000
